molecular target: human mGluR2 receptor (Homo sapiens, UniProt Q14416); construct: expressed in transfected cells; test: [35S]-GTPγS binding assay of mGluR2 receptor activation; assay type: biochemical; conditions: membranes from CHO cells stably expressing human mGluR2; 1 μM glutamate
Sequence (Q14416 19-872): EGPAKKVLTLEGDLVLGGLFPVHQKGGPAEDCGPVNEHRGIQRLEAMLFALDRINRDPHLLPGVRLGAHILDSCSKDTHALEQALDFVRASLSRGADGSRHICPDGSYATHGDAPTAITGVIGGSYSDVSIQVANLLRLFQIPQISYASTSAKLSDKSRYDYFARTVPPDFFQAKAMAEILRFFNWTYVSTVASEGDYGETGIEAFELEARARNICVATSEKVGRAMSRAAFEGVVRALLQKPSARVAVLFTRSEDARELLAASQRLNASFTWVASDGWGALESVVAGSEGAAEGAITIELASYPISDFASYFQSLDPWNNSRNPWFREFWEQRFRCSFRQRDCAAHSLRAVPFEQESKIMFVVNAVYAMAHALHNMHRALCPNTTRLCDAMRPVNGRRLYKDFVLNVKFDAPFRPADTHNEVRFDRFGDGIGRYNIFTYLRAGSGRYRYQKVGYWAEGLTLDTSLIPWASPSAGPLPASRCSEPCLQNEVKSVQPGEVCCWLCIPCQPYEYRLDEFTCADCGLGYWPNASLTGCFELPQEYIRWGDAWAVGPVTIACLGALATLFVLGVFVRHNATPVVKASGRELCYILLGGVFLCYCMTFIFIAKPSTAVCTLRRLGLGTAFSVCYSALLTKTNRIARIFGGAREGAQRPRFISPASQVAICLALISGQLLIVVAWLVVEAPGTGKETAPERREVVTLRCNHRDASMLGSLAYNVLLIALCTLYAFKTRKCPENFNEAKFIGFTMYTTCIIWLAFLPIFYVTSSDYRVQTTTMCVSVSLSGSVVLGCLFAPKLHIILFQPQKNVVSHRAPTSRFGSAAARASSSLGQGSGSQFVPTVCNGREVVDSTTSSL
compounds and their reported EC50
Please state the figure in nM; there is no need to write the unit.

>  <compound>
CN(C)C1CCN(c2cc(Cl)c3c(c2)CN(Cc2ccc(Cl)cc2)C3=O)C1 (centres unmarked)

>  <targetUnderTest>
human mGluR2 receptor (Homo sapiens, UniProt Q14416)

>  <EC50 / nM>
610

$$$$
>  <compound>
Cc1ccc(CN2Cc3cc(NC4CCN(C(=O)OC(C)(C)C)C4)ccc3C2=O)cc1 (centres unmarked)

>  <targetUnderTest>
human mGluR2 receptor (Homo sapiens, UniProt Q14416)

>  <EC50 / nM>
2520

$$$$
>  <compound>
Cc1cc(N2CCN(Cc3ccncc3)CC2)cc2c1C(=O)N(Cc1ccc(N3CCN(Cc4ccncc4)CC3)cc1)C2

>  <targetUnderTest>
human mGluR2 receptor (Homo sapiens, UniProt Q14416)

>  <EC50 / nM>
4040

$$$$

Task: Fill in EC50 for record `Cc1ccc(CN2Cc3cc(-c4cccnc4)ccc3C2=O)cc1`
Output: 2760

Task: Fill in EC50 for record `COCCN1CCN(c2cc(Cl)c3c(c2)CN(Cc2ccc(OC(F)(F)F)cc2)C3=O)CC1`
Output: 210

Task: Fill in EC50 for record `Cc1cc(C(=O)N2CCN(CCc3ccncc3)CC2)cc2c1C(=O)N(Cc1ccc(OC(F)(F)F)cc1)C2`
Output: 1210

Task: Fill in EC50 for record `Cc1cc(N2CCN(Cc3cccnc3)CC2)cc2c1C(=O)N(Cc1ccc(OC(F)(F)F)cc1)C2`
Output: 360

Task: Fill in EC50 for record `CCN1CCN(c2cc(C)c3c(c2)CN(Cc2ccc(OC(F)(F)F)cc2)C3=O)CC1`
Output: 680

Task: Fill in EC50 for record `CN1CCN(c2cc(Cl)c3c(c2)CN(Cc2ccc(OC(F)(F)F)cc2)C3=O)CC1`
Output: 610

Task: Fill in EC50 for record `COc1cc(C2=CCN(C)CC2)cc2c1C(=O)N(Cc1ccc(OC(F)(F)F)cc1)C2`
Output: 3820
